- measurement notes: yeast display, Sf9 membrane polyspecificity reagent, FACS + sequencing; frameworks hold sequencing errors
property label: polyreactivity (PSR sort gate)

[[record]]
primary_sequence = "QVQLEESGGGLVQAGGSLRLSCAASGSTFGYYAMGWYRKAPGKERELVAAISRSGGSTYYADSVKGRFTISRDNAKNTVYLQMNSLKPEDTAVYYCAAKVYGAVYHYYYWGQGTQVTVSS"
property_label = "polyreactivity (PSR sort gate)"
result = "high polyreactivity"

[[record]]
primary_sequence = "QVQQQASGGGLVQAGGSLRLSCATSGSIFYADTMGWYRQAPGKEREFVITYYADSVKGLSRDNAKNTVYLQMNSLKPEDSAVYYCATDGVNPFYAYDYWGQGTQVTVSS"
property_label = "polyreactivity (PSR sort gate)"
result = "low polyreactivity"

[[record]]
primary_sequence = "QVQLVESGGGLVQAGGSLRLSCAASGIIFYSSAMGWYRTAPGKERELVAAISWGGRTYYADSVKGRFTISRDNAKNTVYLQMNSLKPEDTAVYYCLNGRYWRRYDYWGQGTQVTVSS"
property_label = "polyreactivity (PSR sort gate)"
result = "high polyreactivity"

[[record]]
primary_sequence = "QVQIVESGGGLVQAGGSLRLSCAASGSTSWSNAMGWYRQAPRKERELVAAITTGASTYYADSVKGRFTISRDNSKNTVYLQMNSLKLEDTAVYYCAADPWVLWSYYYWGQGTQVTVSS"
property_label = "polyreactivity (PSR sort gate)"
result = "low polyreactivity"

[[record]]
primary_sequence = "QVQLVESGGGLVQAGGSLRLSCAASGFTFDFYALGWYRQAPGKERELVAAISKNDGTTYYADSVKGRFTISRDNAKNTVYLQMNSLKPEDTAVYYCNAGNNVVVDYDYWGQGTQVTVSS"
property_label = "polyreactivity (PSR sort gate)"
result = "low polyreactivity"


* * *

- measurement notes: yeast display, Sf9 membrane polyspecificity reagent, FACS + sequencing; frameworks hold sequencing errors
property label: polyreactivity (PSR sort gate)

[[record]]
primary_sequence = "QVQLVESGGGLVQAGGSLRLSCAASGRTFGINAMGWYRQAPGKDRELVAAIRTGGSTYYADSVKGRFTISRDNAMNTVYLQMNSLKPEDTAVYYCAAKAYRRYTIPPYGYWGQGTQVTVSS"
property_label = "polyreactivity (PSR sort gate)"
result = "high polyreactivity"

[[record]]
primary_sequence = "QVQLVESGGGLVQAGGSLRLSCAASGRTFRSYAMGWYRQAPGKERELVAAISWTGGSTYYADSVKGRFTISRDNAKNTVYLQMNSLKPEDTAVYYCAVRYRGYGYDWGQGTQVTVSS"
property_label = "polyreactivity (PSR sort gate)"
result = "high polyreactivity"

[[record]]
primary_sequence = "QVQLVESGGGLVQAGGSLRLSCAASGRIIDRNAMGWYRQAPGKERELVAAISSSGSTNYADSVKGRFTISRDNAKNTVYLQLNSLKPEDTAVYYCAARWRSVLASGTRPVSFDYWGQGTQVTVSS"
property_label = "polyreactivity (PSR sort gate)"
result = "low polyreactivity"

[[record]]
primary_sequence = "QVQLVESGGGLVQAGGSLRLSCAASGSIFEDYAMGWYRQAPGKERELVAGINWSGGSTYYADSVKGRFTISRDNAKNTVYLQMNSLKPEDTAVYYCAAKAFYYYYTEHDYWGQGTQVTVSS"
property_label = "polyreactivity (PSR sort gate)"
result = "high polyreactivity"

[[record]]
primary_sequence = "QVQLVESGGGLVQAGGSLRLSCAASGSILDSNAMGWYRQAPGKERELVAAITSGGSTYYADSVKGRFTISRDNAMNSVYLQMNSLKPEDTAVYYCAAAYLGYGAVQPSYEGGYWGQGTQVTVSS"
property_label = "polyreactivity (PSR sort gate)"
result = "low polyreactivity"

[[record]]
primary_sequence = "QVQLVESGGGLVQAGGSLRLSCAAYGITFGANAMGWYRQAPGKERELVADITWSGGDTYYADSVKGRFTISRDNAKYTVYLQMTSLIPEDTAVYYCNALQPGLGSPLGEYDFWGQGTQVTVSS"
property_label = "polyreactivity (PSR sort gate)"
result = "low polyreactivity"

[[record]]
primary_sequence = "QVQIVESGGGLVQAGGSLRLSCAASGRTFRENAMGWYRQAPGKERELVAAAISSGDGTNYADSVKGRFTISRDYAKNTVYLQMNSLQPEDTAVYYCAADGPRDSYDYWGQGTQVTVSS"
property_label = "polyreactivity (PSR sort gate)"
result = "low polyreactivity"

[[record]]
primary_sequence = "QVQLVESGGGLVQAGGSLRLSCAASGRIFNGYAMGWYRQAPGKERELVARISKRGGRTYYADSVKGRFTISRDNAKNTVYLQMNSLKPEDTAVYYCNAVPRVTRPSAVEEYDYWGQGTQVTVSS"
property_label = "polyreactivity (PSR sort gate)"
result = "high polyreactivity"

[[record]]
primary_sequence = "QVQLVESGGGLVQAGGSLRLSCAASGRTFYVNTMGWYRQAPGKERELVAAITSRGGRTHYADSVKGRFTISRDNAKNNVYLQMNSLKPEDTAVYYCAAKITAYWRYISDYGYWGQGTQVTVSS"
property_label = "polyreactivity (PSR sort gate)"
result = "high polyreactivity"

[[record]]
primary_sequence = "QVQLVESGGGLVQAGGSLRLSCAASGFIFRGYAMGWYRQAPGKERELVAAITSSGGDTYYADSVKGRFTISRDNAKNTVYLQMNSLKPEDSAVYYCAKRARRIGDVNMGSWGQGSQVTVSS"
property_label = "polyreactivity (PSR sort gate)"
result = "low polyreactivity"

[[record]]
primary_sequence = "QVQLVESGGGLVQAGGSLRLSCAASGRTFARNAMGWYRHAPGKERELVAAISGSGGITYYADSVKGRFTISRDNAKNTVYLQMNSLKPEDTAVYYCNAGNNVVVDYDYWGQGTQVTVSS"
property_label = "polyreactivity (PSR sort gate)"
result = "low polyreactivity"

[[record]]
primary_sequence = "QVQLVESGGGLVQAGGSLRLSCAASGSTFWYYAMGWYRQAPGKEREFVAAITTSAGRTYDADSVKGRFTISRDHAKNTVYLQMNSLKPEDTAVYYCAAEPRQYWEYNYWGQGTQVTVSS"
property_label = "polyreactivity (PSR sort gate)"
result = "high polyreactivity"

[[record]]
primary_sequence = "QVQLVESGGGLVQAGGSLRLSFAASGSTFPKYAMRGYRPAPGKQRELVASISVTTGSTNYADSEKGRFTISRDNAKNTVYLQMNSLKPEDTAVYYCAADTVYRTHHYAQHYYYWGQGTLVTVSS"
property_label = "polyreactivity (PSR sort gate)"
result = "high polyreactivity"


* * *

- measurement notes: yeast display, Sf9 membrane polyspecificity reagent, FACS + sequencing; frameworks hold sequencing errors
property label: polyreactivity (PSR sort gate)

[[record]]
primary_sequence = "QVQLVESGGGLVQAGGSLRLSCAASGRIFAEYAMGWYIQATGKERELVASISRRGGSTYYADSVKGRFTISRDNAKNTVYLQMNSLKPEDTAVYYCAAVWAYYHTRYSTWGYDYWGQGTQVTVSS"
result = "high polyreactivity"

[[record]]
primary_sequence = "QVQLVESGGGLVQAGGSLRLSCAASGFIFVRYAMGWYRQAPGKERELVAAISWRGGSTYYADSVKGRFTISRDNAKNTVYLQMNSLKPEDTAVYYCAAVTWVHRYSRFHPFVAFDYWGQGTQVTVSS"
result = "high polyreactivity"

[[record]]
primary_sequence = "QVQLVESVGGLVQAGGSLRLSCAASGSIIKVYAMGWYRQAPGKERELVAGIRGSGGRTYYADSVKGRFTISRDNAKNTVYLQMNSLKPEDTAVYYCNARNPGRLGRFDYWGQGTQVTVSS"
result = "low polyreactivity"

[[record]]
primary_sequence = "QVQLVESGGGLVQAGGSLRLSCAASGLTFGSYAMGWYRQAPGKERELVAAISSRGGTTYYADSVKGRFTISRDNAKNTVYLQMNSLKPEDTAVYYCAARSRRYSYDNLGHWGQGTQVTVSS"
result = "high polyreactivity"

[[record]]
primary_sequence = "QVQLVESGGGLVQAGGSLRLSCAASGSTLQNNAMGRYRQAPGKERELVAAISVSDGITYYADSVKGRFTISRDNAKNTVYLQMNSLKPEDTAVYSFAADYSSPWQAVQGDDYWGQGTQVTVSS"
result = "low polyreactivity"

[[record]]
primary_sequence = "QVQLVESGGGLVQAGGSLRLSCAASGITFDRYAMGWYRQAPGKERELVAAITSGGRTYYADSVKGRFTISRDNAKNTVYLQMNSLKPEDTAVYYCNATRGQYVGRYYYWGQGTQVTVSS"
result = "high polyreactivity"

[[record]]
primary_sequence = "QVQLLESGGGLVQAGGSLRLSCAASGSTFGVYAMGWYRQAPGKEREFVAAINARGTRTRYADSVKGRFTISRDNAKNTVYLQMNSLKPDDTAVYYCAAVWYGYYSIDTYGYWGQGTQVTVSS"
result = "high polyreactivity"

[[record]]
primary_sequence = "QVQIVESGGGLVQAGGSLRLSCAASGSIFKYYAMGSYRQAPVKERELVAAISSGGSTKYADSVKARFTISRDNEKNTVYLHMTRLIPEDTAVYYCAARDPSRHARRAYDYWGQGTQVTVSS"
result = "low polyreactivity"

[[record]]
primary_sequence = "QVQHVESGGGLVQAGGSLRLSCAASGRTITLNAMGWYRQAPGKERELVAAITWGAGSTYYADSVKGRFTISRDNAKNTVYLQMNSLKPEDTAVYYCAARFHGAYYRYRSPSMYYWGQGTQVTVSS"
result = "high polyreactivity"

[[record]]
primary_sequence = "QDQLVESGGGLVQAGGSLSLSCAASGRTFYWYVMGWYRQAPGKERELVAAITQTGSSSYYADSVKGRFTISRDNAKNTVYLQMNSLKPEDTAVYYCADRLSRNHYEVDYWGQGTQVTVSS"
result = "low polyreactivity"

